The measured values listed here are drawn from ChEMBL document CHEMBL4513216.

Listing of entries alongside the reported INHIBITION.
# System: Plasmodium berghei
# protocol_description: Screen against P. berghei liver stage (PbLuc), transformed with Luciferase, at 10uM
# Type: functional, HepG2
# condition_description: tested at 10 uM
About 8,600 (12%) of roughly 69,000 compounds showed an effect of 50% or more. Shown is part of a subset that was picked to be rich in strong results.
Provide only the numeric value, understood in %.

Some compounds with recorded INHIBITION:
1. CCn1cc(NC(=O)CN2CCC(Oc3ccccc3C)CC2)c(C)n1: -0.275
2. CCC(=O)N1CCN(C)C(=O)C(Cc2ccccc2-c2cccs2)C1 (centres undefined): 22
3. Cc1ccc2cnn(CCC(=O)Nc3nc(C)c(C)s3)c2c1: 30.8
4. CN1CCN(Cc2cscn2)CC(C(=O)N(C)C)C1 (centres undefined): 43.8

Incoming: Endpoint output: INHIBITION of CNc1cc(C)nc(C2COCCN2CCOc2ccc(F)cc2)n1 (centres undefined) . Value?
Outgoing: -12.625

Incoming: Endpoint output: INHIBITION of COc1cccc(S(=O)(=O)NC(=O)C2CC(c3ccccc3)=NO2)c1 (centres undefined) . Value?
Outgoing: -24.7

Incoming: Endpoint output: INHIBITION of `CCn1cc(NC(=O)CN2CCC(Oc3ccc(F)cc3)CC2)c(C)n1` . Value?
Outgoing: 58
